CONDITION_CONTEXT: between FC-72 and MeOH
PROPERTY_NAME: Kp (partition coefficient)
Number, no unit, nothing else.

Kp (partition coefficient) in this record for CC(C)[Si](CCC(F)(F)C(F)(F)C(F)(F)C(F)(F)C(F)(F)C(F)(F)C(F)(F)C(F)(F)F)(OCC=Cc1ccccc1)C(C)C : 1.3

Kp (partition coefficient) in this record for CC(C)[Si](CCC(F)(F)C(F)(F)C(F)(F)C(F)(F)C(F)(F)C(F)(F)C(F)(F)C(F)(F)F)(OCCc1ccc2ccccc2c1)C(C)C : 0.92

Kp (partition coefficient) in this record for CC(C)[Si](CCC(F)(F)C(F)(F)C(F)(F)C(F)(F)C(F)(F)C(F)(F)C(F)(F)C(F)(F)F)(O[C@@H](C)c1ccc2ccccc2c1)C(C)C : 1.5

Kp (partition coefficient) in this record for CC(C)[Si](CCC(F)(F)C(F)(F)C(F)(F)C(F)(F)C(F)(F)C(F)(F)F)(OCCc1ccc2ccccc2c1)C(C)C : 0.39

---

EXPERIMENTAL_PROTOCOL: Transfer of organic compounds between two MeCN phases through an FC-72 phase (U-tube)
Type: physicochemical
CONDITION_CONTEXT: two MeCN phases through FC-72, 23° C., 3 days
Assignment: determine reported ratio (A/B) for the given molecules.

ratio (A/B) in this record for CC(O)c1ccc2ccccc2c1 (stereo not drawn) [1-(2-naphthyl)ethanol] : 96/4

ratio (A/B) in this record for OCC=Cc1ccccc1 [cinnamyl alcohol] : 99/1

ratio (A/B) in this record for CC(N)c1cccc2ccccc12 (stereo not drawn) [1-(1-naphthyl)ethylamine] : 82/18

ratio (A/B) in this record for N#CCc1ccc2ccccc2c1 [2-naphthylacetonitrile] : 99/1

ratio (A/B) in this record for CCCCCCCCCCCCO [dodecanol] : 96/4

ratio (A/B) in this record for CC(=O)Oc1ccc2ccccc2c1 [2-naphthyl acetate] : 94/6

---

EXPERIMENTAL_PROTOCOL: Transfer of organic compounds between two MeCN phases through an FC-72 phase (U-tube)
Assay type: physicochemical
CONDITION_CONTEXT: two MeCN phases through FC-72, 23° C., 3 days
Marks after values point to notes of the source that are not given here.
Assignment: determine reported ratio (A/B) for the given molecules.

ratio (A/B) in this record for N#CCC#N : >99/1

ratio (A/B) in this record for CC(=O)Cc1ccc2ccccc2c1 : 91/9

ratio (A/B) in this record for CCc1ccc2ccccc2c1 : 66/33^a

ratio (A/B) in this record for OCCc1ccc2ccccc2c1 : 99/1

ratio (A/B) in this record for O=C(O)Cc1ccc2ccccc2c1 : >99/1
